# Assay Remarks: Determination of solubility in deionized water (HPLC, external standard)
# Conditions Used: 25 °C, water, thermodynamic from solid
Observation Type: solubility at 30 min

Check out these entries, answers already filled in.
compound="CC[C@@H]([C@H](C)O)n1ncn(-c2ccc(N3CCN(c4ccc(OC[C@@H]5CO[C@@](Cn6c[n+](C(C)OC(=O)N(C)c7ncccc7COC(=O)[C@@H](N)CCCNC)cn6)(c6ccc(F)cc6F)C5)cc4)CC3)cc2)c1=O (some centres unmarked)" obs_value="> 50 mg/mL"
compound="CC[C@@H]([C@H](C)OC(=O)OC(C)OC(=O)CCCCCCOS(=O)(=O)[O-])n1ncn(-c2ccc(N3CCN(c4ccc(OC[C@@H]5CO[C@@](Cn6cncn6)(c6ccc(F)cc6F)C5)cc4)CC3)cc2)c1=O.[Na+] (some centres unmarked)" obs_value="> 50 mg/mL"
compound="CC[C@@H]([C@H](C)O)n1ncn(-c2ccc(N3CCN(c4ccc(OC[C@@H]5CO[C@@](Cn6c[n+](C(C)OC(=O)N(C)c7ncccc7COC(=O)[C@@H](N)CCC(N)=O)cn6)(c6ccc(F)cc6F)C5)cc4)CC3)cc2)c1=O (some centres unmarked)" obs_value="> 50 mg/mL"
compound="CC[C@@H]([C@H](C)O)n1ncn(-c2ccc(N3CCN(c4ccc(OC[C@@H]5CO[C@@](Cn6c[n+](C(C)OC(=O)N(C)c7ncccc7COC(=O)[C@@H](N)CCCCN)cn6)(c6ccc(F)cc6F)C5)cc4)CC3)cc2)c1=O (some centres unmarked)" obs_value="> 50 mg/mL"
compound="CC[C@@H]([C@H](C)OC(=O)OC(C)OC(=O)CCCCCCCOS(=O)(=O)[O-])n1ncn(-c2ccc(N3CCN(c4ccc(OC[C@@H]5CO[C@@](Cn6cncn6)(c6ccc(F)cc6F)C5)cc4)CC3)cc2)c1=O.[Na+] (some centres unmarked)" obs_value="> 50 mg/mL"

Query: What solubility at 30 min value was documented for this compound, CC[C@@H]([C@H](C)O)n1ncn(-c2ccc(N3CCN(c4ccc(OC[C@@H]5CO[C@@](Cn6c[n+](C(C)OC(=O)N(C)c7ccccc7COC(=O)[C@@H](N)CCCN)cn6)(c6ccc(F)cc6F)C5)cc4)CC3)cc2)c1=O (some centres unmarked) ?
Reply: > 50 mg/mL

Query: Same read-out for CC[C@@H]([C@H](C)O)n1ncn(-c2ccc(N3CCN(c4ccc(OC[C@@H]5CO[C@@](Cn6c[n+](C(C)OC(=O)NC7O[C@H](CO)[C@H](O)[C@H]7OC(=O)CNC)cn6)(c6ccc(F)cc6F)C5)cc4)CC3)cc2)c1=O (some centres unmarked) ?
Reply: 35.7 mg/mL

Query: Input `CC[C@@H]([C@H](C)OC(=O)OCCOCCOCCOP(=O)([O-])[O-])n1ncn(-c2ccc(N3CCN(c4ccc(OC[C@@H]5CO[C@@](Cn6cncn6)(c6ccc(F)cc6F)C5)cc4)CC3)cc2)c1=O.[Na+].[Na+]`
Reply: > 50 mg/mL

Query: Another compound to check: CCC([C@H](C)OC(=O)C(O)C(O)COP(=O)(O)O)n1ncn(-c2ccc(N3CCN(c4ccc(OC[C@@H]5CO[C@@](Cn6cncn6)(c6ccc(F)cc6F)C5)cc4)CC3)cc2)c1=O (some centres unmarked)
Reply: 47.7 mg/mL

Query: What would you report for CC[C@@H](C(C)OC(=O)OC(C)OC(=O)CNS(=O)(=O)[O-])n1ncn(-c2ccc(N3CCN(c4ccc(OC[C@@H]5CO[C@@](Cn6cncn6)(c6ccc(F)cc6F)C5)cc4)CC3)cc2)c1=O.[Na+] (some centres unmarked) ?
Reply: > 50 mg/mL

Query: Try this compound next: CC[C@@H]([C@H](C)O)n1ncn(-c2ccc(N3CCN(c4ccc(OC[C@@H]5CO[C@@](Cn6c[n+](C(C)OC(=O)N(C)c7ncccc7COC(=O)[C@@H](N)CO)cn6)(c6ccc(F)cc6F)C5)cc4)CC3)cc2)c1=O (some centres unmarked)
Reply: > 50 mg/mL

From: patent US10517867B2
